B1: Osa-1-4 twister ribozyme (parent)
chain: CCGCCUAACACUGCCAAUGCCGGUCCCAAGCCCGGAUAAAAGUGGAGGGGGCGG

# Variants of: B1
# ASSAY_TEXT: self-cleavage, relative activity (ratio to wild type); higher = more cleavage; co-transcriptional
Please use criterion met whenever self-cleavage is not below 0.07, and criterion not met whenever it is.

Study these solved cases before continuing.
[[record]]
variant_label = "C11G C21U"
assigned_label = "criterion met"

[[record]]
variant_label = "G30U G42U"
assigned_label = "criterion not met"

[[record]]
variant_label = "G23U G47C"
assigned_label = "criterion not met"

[[record]]
variant_label = "G13U G45C"
assigned_label = "criterion not met"

[[record]]
variant_label = "A36U C14G"
assigned_label = "criterion met"


Is self-cleavage for A38C at or above 0.07?
criterion met

Source: the RNAGym collection of RNA variant scans (doi:10.1002/anie.201605470)
